Reference for the values: patent EP3319959B1

Please provide measured pIC50 for the entries that follow.
tested on: recombinant human HDACs; test: HDAC enzymatic assay (LabChip capillary electrophoresis); format: biochemical; conditions: 5 nM HDAC enzyme, 1 uM substrate, 5 hours pre-incubation, 17 hours reaction at 25°C; isoform not given
pIC50: −log10 of the molar value.

Could I get pIC50 for every one of these entries?
1. Nc1ccc(-c2ccc(F)cc2)nc1NC(=O)N1C[C@@H]2[C@@H](CO)[C@@H]2C1
2. CN(C)Cc1ccc(C2CN(C(=O)Nc3nc(-c4ccc(F)cc4)ccc3N)C2)cc1
3. Nc1ccc(-c2ccc(F)cc2)nc1NC(=O)N1CC2CN(CCF)CC2C1 (centres unmarked)
4. Nc1ccc(-c2ccc(F)cc2)nc1NC(=O)N1CC2CC(N3CCOCC3)CC2C1 (centres unmarked)
5. CN1CCC(c2ccc3c(c2)CN(C(=O)Nc2nc(-c4ccc(F)cc4)ccc2N)C3)CC1
6. Nc1ccc(-c2ccccc2)nc1NC(=O)C1CCN(C2COC2)CC1

Out:
5.30 to 6.30
6.30 to 7.00
< 5.30
< 5.30
5.30 to 6.30
< 5.30

* * *

tested on: recombinant human HDACs; experiment: HDAC enzymatic assay (LabChip capillary electrophoresis); assay type: biochemical; conditions: 5 nM HDAC enzyme, 1 uM substrate, 5 hours pre-incubation, 17 hours reaction at 25°C; isoform not given
pIC50: −log10 of the molar value.
Please provide measured pIC50 for the entries that follow.

{"MOLECULE": "Nc1cn(-c2ccccc2)nc1NC(=O)N1CC2CCCC2C1 (centres unmarked)", "EXPERIMENTAL_RESULT": "< 5.30"}

Could I get pIC50 for every one of these entries?
1. CC(C)Cc1cnc2c(c1)CN(C(=O)Nc1nc(-c3ccc(F)cc3)ccc1N)C2
2. CN(C1COC1)C1CC2CN(C(=O)Nc3nc(-c4ccc(F)cc4)ccc3N)CC2C1 (centres unmarked)
3. Nc1ccc(-c2ccc(OC(F)F)cc2)nc1NC(=O)N1Cc2nccnc2C1
4. CN(C)Cc1cnc2c(c1)CN(C(=O)Nc1nc(-c3cccs3)ccc1N)C2

Out:
6.30 to 7.00
5.30 to 6.30
5.30 to 6.30
6.30 to 7.00

Could I get pIC50 for every one of these entries?
1. CN1CCN(C2CC3CN(C(=O)Nc4nc(-c5ccc(F)cc5)ccc4N)CC3C2)CC1 (centres unmarked)
2. Nc1ccc(-c2ccc(F)cc2)nc1NC(=O)N1Cc2cc(CN3CC(F)(F)C3)cnc2C1
3. Nc1ccc(-c2ccccc2)nc1NC(=O)CN1CCn2cncc2C1

Out:
1. 5.30 to 6.30
2. 5.30 to 6.30
3. < 5.30

* * *

Please provide measured Kd for the entries that follow.
target: HDAC1 (Homo sapiens, UniProt Q13547); assay: Reporter displacement assay (HDAC1)
Sequence (Q13547 whole entry): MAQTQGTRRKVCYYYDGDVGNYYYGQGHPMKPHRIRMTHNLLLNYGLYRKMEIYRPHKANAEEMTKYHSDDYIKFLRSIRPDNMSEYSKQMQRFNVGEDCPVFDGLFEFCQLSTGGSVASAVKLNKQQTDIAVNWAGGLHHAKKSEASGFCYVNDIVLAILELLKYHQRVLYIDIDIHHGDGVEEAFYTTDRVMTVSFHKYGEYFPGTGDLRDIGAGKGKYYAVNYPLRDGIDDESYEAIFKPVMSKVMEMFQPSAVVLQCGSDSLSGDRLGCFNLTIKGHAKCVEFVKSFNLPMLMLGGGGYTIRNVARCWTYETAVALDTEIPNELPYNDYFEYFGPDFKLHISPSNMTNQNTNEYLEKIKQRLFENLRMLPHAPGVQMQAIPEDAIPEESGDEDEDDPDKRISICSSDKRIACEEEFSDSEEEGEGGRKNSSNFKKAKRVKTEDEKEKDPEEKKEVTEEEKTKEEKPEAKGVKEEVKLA

Here's what some known entries look like.
{"COMPOUND": "Nc1ccc(-c2ccc(F)cc2)nc1NC(=O)C1CCOCC1 [Compound 109]", "Kd": "> 5 µM"}
{"COMPOUND": "Nc1ncc(-c2ccc(F)cc2)cc1NC(=O)N1CC2CCCC2C1 (stereo not drawn) [Compound 104]", "Kd": "> 5 µM"}
{"COMPOUND": "Nc1ccc(-c2ccc(F)cc2)c(F)c1NC(=O)N1Cc2nccnc2C1 [Compound 113]", "Kd": "< 0.1 µM"}

Could I get Kd for every one of these entries?
1. Nc1nn(-c2ccc(F)cc2)cc1NC(=O)N1Cc2ccncc2C1 [Compound 102]
2. Nc1cnc(-c2ccc(F)cc2)cc1NC(=O)C1CCOCC1 [Compound 106]
3. Nc1cc(F)c(-c2ccc(F)cc2)cc1NC(=O)C1CCOCC1 [Compound 115]
4. Nc1ccc(-c2ccc(F)cc2)c(F)c1NC(=O)C1CCOCC1 [Compound 118]
5. Nc1nn(-c2ccncc2)cc1NC(=O)N1Cc2ccncc2C1 [Compound 103]
6. Nc1cnc(-c2ccc(F)cc2)nc1NC(=O)N1CCCC1 [Compound 110]

Out:
> 5 µM
> 5 µM
> 5 µM
0.5 to 5 µM
> 5 µM
0.5 to 5 µM

* * *

tested on: recombinant human HDACs; experiment: HDAC enzymatic assay (LabChip capillary electrophoresis); type: biochemical; conditions: 5 nM HDAC enzyme, 1 uM substrate, 5 hours pre-incubation, 17 hours reaction at 25°C; isoform not given
Please provide measured IC50 for the entries that follow.

{"MOLECULE": "CN(C)Cc1ccc2c(c1)CN(C(=O)Nc1nn(-c3ccccc3)cc1N)C2", "EXPERIMENTAL_RESULT": "0.1 to 0.5 µM"}

Could I get IC50 for every one of these entries?
1. Nc1ccc(-c2ccc(F)cc2)nc1NC(=O)N1Cc2cccc(F)c2C1
2. Nc1ccc(-c2ccc(F)cc2)nc1NC(=O)N1Cc2cnc(N3CCC3)cc2C1
3. CC(=O)N1CCN(CC(=O)Nc2nc(-c3ccccc3)ccc2N)CC1
4. Nc1ccc(-c2ccc(F)cc2)nc1NC(=O)N1CC2CC(N3CCC3)CC2C1 (stereo not drawn)
5. Nc1cn(-c2ccccc2)nc1NC(=O)N1CC2COCC2C1 (stereo not drawn)

Out:
["0.1 to 0.5 µM", "0.1 to 0.5 µM", "> 5 µM", "0.5 to 5 µM", "> 5 µM"]

Could I get IC50 for every one of these entries?
1. Cc1ccc(C2CN(C(=O)Nc3nc(-c4ccc(F)cc4)ccc3N)C2)cc1
2. Nc1ccc(-c2ccc(F)cc2)nc1NC(=O)N1CCN2CCCC2C1 (stereo not drawn)
3. Nc1ccc(-c2ccccc2)nc1NC(=O)C1CCN(Cc2ccccc2F)CC1

Out:
1: 0.5 to 5 µM; 2: > 5 µM; 3: > 5 µM

* * *

molecular target: HDAC1 (Homo sapiens); assay: Reporter displacement assay (HDAC1); type: binding
Please enter true (1) where residence time is greater than or equal to 300 min, and false (0) where it is lower.

Solved entries:
{"COMPOUND": "Nc1cnc(-c2ccc(F)cc2)nc1NC(=O)N1CCCC1 [Compound 110]", "ASSAYED_SYSTEM": "HDAC1 (Homo sapiens)", "CLASS": "true (1)"}
{"COMPOUND": "Nc1ccc(-c2ccc(F)cc2)c(F)c1NC(=O)N1CCCC1 [Compound 112]", "ASSAYED_SYSTEM": "HDAC1 (Homo sapiens)", "CLASS": "true (1)"}
{"COMPOUND": "Nc1cn(-c2ccccc2)nc1NC(=O)N1Cc2ccncc2C1 [Compound 122]", "ASSAYED_SYSTEM": "HDAC1 (Homo sapiens)", "CLASS": "true (1)"}
{"COMPOUND": "Nc1cnc(-c2ccc(F)cc2)nc1NC(=O)N1Cc2nccnc2C1 [Compound 121]", "ASSAYED_SYSTEM": "HDAC1 (Homo sapiens)", "CLASS": "true (1)"}
{"COMPOUND": "Nc1ccc(-c2ccncc2)nc1NC(=O)N1CCCC1 [Compound 111]", "ASSAYED_SYSTEM": "HDAC1 (Homo sapiens)", "CLASS": "false (0)"}

In: Record Nc1ccc(-c2ccc(F)cc2)nc1NC(=O)N1Cc2nccnc2C1 [Compound 120] ; criterion: residence time no lower than 300 min. Met?
Out: true (1)

In: Record Nc1cc(F)c(-c2ccc(F)cc2)cc1NC(=O)N1Cc2ccncc2C1 [Compound 100] ; criterion: residence time no lower than 300 min. Met?
Out: false (0)

In: Record Nc1cc(F)c(-c2ccc(F)c(F)c2)cc1NC(=O)N1CCCC1 [Compound 116] ; criterion: residence time no lower than 300 min. Met?
Out: false (0)

* * *

Please provide measured Kd for the entries that follow.
Target: HDAC2 (Homo sapiens)
Construct: purchased Proteros
Sequence (Q92769 whole entry): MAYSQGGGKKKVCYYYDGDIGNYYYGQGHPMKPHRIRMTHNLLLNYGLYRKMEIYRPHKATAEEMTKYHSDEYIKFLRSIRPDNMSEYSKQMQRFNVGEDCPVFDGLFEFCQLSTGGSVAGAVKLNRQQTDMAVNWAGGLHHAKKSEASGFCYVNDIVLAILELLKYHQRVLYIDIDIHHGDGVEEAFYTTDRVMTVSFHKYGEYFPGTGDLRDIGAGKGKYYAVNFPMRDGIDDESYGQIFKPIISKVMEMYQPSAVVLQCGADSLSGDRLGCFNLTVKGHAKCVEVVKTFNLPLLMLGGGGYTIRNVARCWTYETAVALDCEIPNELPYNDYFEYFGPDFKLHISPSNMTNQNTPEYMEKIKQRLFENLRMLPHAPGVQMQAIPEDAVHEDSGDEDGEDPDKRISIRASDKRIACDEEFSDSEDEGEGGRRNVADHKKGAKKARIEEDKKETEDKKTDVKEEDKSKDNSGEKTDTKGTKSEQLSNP
Experiment: Reporter displacement assay (HDAC2)
Type: binding
Conditions: 20 nM HDAC2, 180 nM reporter probe, read after 4 hours; Kd by Cheng Prusoff equation
Description: HDAC2 containing a C-terminal HIS-Tag (Proteros) and fluorescently-labeled anti-HIS-antibody are diluted in one vial in assay buffer 50 mM Tris, pH 8.0, 1 mM DTT, 150 mM NaCl, and 0.01% Tween20. […] Fluorescence intensity signal is read after 4 hours in a Pherastar FS (BMG Labtech) at 337/665 nm. For Kd determination, percent probe displacement values are calculated for each compound concentration and plotted against the compound concentration. […]

{"COMPOUND": "Nc1ccc(-c2ccc(F)cc2)nc1NC(=O)C1CCOCC1 [Compound 109]", "Kd": "500 to 5000 nM"}

Could I get Kd for every one of these entries?
1. Nc1nn(-c2ccc(F)cc2)cc1NC(=O)N1Cc2ccncc2C1 [Compound 102]
2. Nc1cc(F)c(-c2ccc(F)cc2)cc1NC(=O)N1Cc2ccncc2C1 [Compound 100]
3. Nc1nn(-c2ccncc2)cc1NC(=O)N1Cc2ccncc2C1 [Compound 103]
4. Nc1ccc(-c2ccc(F)cc2)c(F)c1NC(=O)C1CCOCC1 [Compound 118]

Out:
> 5000 nM
100 to 500 nM
> 5000 nM
500 to 5000 nM

Could I get Kd for every one of these entries?
1. Nc1ccc(-c2ccc(F)cc2)nc1NC(=O)N1CCCC1 [Compound 107]
2. Nc1nn(-c2ccccc2)cc1NC(=O)N1Cc2ccncc2C1 [Compound 101]
3. Nc1ccc(-c2ccncc2)nc1NC(=O)N1CCCC1 [Compound 111]
4. Nc1cn(-c2ccccc2)nc1NC(=O)N1Cc2ccncc2C1 [Compound 122]

Out:
1. 500 to 5000 nM
2. > 5000 nM
3. > 5000 nM
4. 100 to 500 nM

Could I get Kd for every one of these entries?
1. Nc1cnc(-c2ccc(F)cc2)cc1NC(=O)N1CCCC1 [Compound 105]
2. Nc1cnc(-c2ccncc2)cc1NC(=O)N1CCCC1 [Compound 108]
3. Nc1ccc(-c2ccc(F)cc2)c(F)c1NC(=O)N1Cc2nccnc2C1 [Compound 113]
4. Nc1ccc(-c2ccc(F)cc2)c(F)c1NC(=O)N1CCCC1 [Compound 112]

Out:
1. 500 to 5000 nM
2. 500 to 5000 nM
3. 100 to 500 nM
4. 100 to 500 nM
